measured_target: T1, PDZD2_2, O15018
T1 sequence (O15018 329-429, limits assumed, looked up): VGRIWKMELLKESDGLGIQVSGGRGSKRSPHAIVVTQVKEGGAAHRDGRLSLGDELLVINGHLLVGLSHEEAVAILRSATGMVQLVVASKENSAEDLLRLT
assay_summary: holdup assay
Set-up: key: below the threshold = too weak to quantify, mostly under pKd 3.1 to 4
condition: plain residues with an end cap or a label only (N-terminal biotin on a linker: ado-ado)
assay_endpoint: pKd

As a guide, the following entries are already answered.
GTGYDRKDYV [CLDN3, O15551] :: 4.95
SFISKKEWYV [NECTIN1, Q15223] :: 5.02
QRPYRRGSEI [KCNJ18, B7U540] :: 4.79

Fill blank: measured pKd of the binder TGLWKHETTV [ADGRA3, Q8IWK6] is ____.
4.2

Recorded values, source paper PMC9482650.
